Target: Delta-type opioid receptor (Mus musculus)
Sequence (P32300 whole entry): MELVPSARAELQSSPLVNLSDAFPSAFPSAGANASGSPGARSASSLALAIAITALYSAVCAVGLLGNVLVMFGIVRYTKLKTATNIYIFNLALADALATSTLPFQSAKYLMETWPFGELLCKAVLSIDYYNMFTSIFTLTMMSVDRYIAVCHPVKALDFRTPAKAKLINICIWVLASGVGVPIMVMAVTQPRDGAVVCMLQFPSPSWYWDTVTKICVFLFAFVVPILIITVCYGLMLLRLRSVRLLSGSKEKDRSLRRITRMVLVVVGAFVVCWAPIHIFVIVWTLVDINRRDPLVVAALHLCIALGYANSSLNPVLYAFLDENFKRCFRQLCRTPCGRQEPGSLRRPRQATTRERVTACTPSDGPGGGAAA
Assay: Negative logarithm of the molar concentration of delta receptor was determined in mouse vas deferens
Settings: read-out: pA2 (converted)
The following molecules are listed with their measured Kb values.

{"Molecule": "Cc1cc(O)cc(C)c1C[C@H](N)C(=O)N1CCc2ccc(F)cc2C1", "Kb": "617 nM"}
{"Molecule": "Cc1cc(O)cc(C)c1C[C@H](N)C(=O)N1Cc2ccc(F)cc2CC1C(=O)O (some centres undefined)", "Kb": "35.5 nM"}
{"Molecule": "Cc1cc(O)cc(C)c1C[C@H](N)C(=O)N1Cc2ccccc2CC1COCc1ccccc1 (some centres undefined)", "Kb": "13.5 nM"}
{"Molecule": "Cc1cc(O)cc(C)c1C[C@H](N)C(=O)N1CCc2ccccc2C1", "Kb": "38.9 nM"}

// data source = ChEMBL document CHEMBL1132844
